These entries and their values trace back to PubChem BioAssay (NCI).

TGI values for the molecules below.
- Tested on: KM12 colon
- method-summary: NCI tumour cell line growth inhibition, 48 h

These solved cases illustrate the format of a correct answer.
>>> print(df.to_string())
                                   molecule  recorded_value
0    C=CC(=O)NCCC(=O)OCn1cc(F)c(=O)[nH]c1=O        > 100 µM
1  CC[C@@]1(OP(=O)(O)O)C(=O)OCc2c1cc1n(c2=O)Cc2cc3ccccc3nc2-1         3.47 µM
2  COc1cccc(OC)c1C1ON=C(c2ccccc2)N1C12CC3CC(CC(C3)C1)C2 (stereo unspecified)        > 100 µM
3  O=C1C2C3C4C1C1C2[C@H](OCc2ccccc2)C3C1[C@H]4OCc1ccccc1 (stereo partly specified)        > 100 µM
4  CC(=O)OC(C)(C)C1CC[C@]2(C)/C=C/C(C)C[C@@H](O)/C=C(\C)CC(O)C12 (stereo partly specified)        > 100 µM

Task item: Record lookup: for KM12 colon, what TGI belongs to O=C1C2C3CC4C5C3C1C5C1(SCCS1)C42 (stereo unspecified) ?
Reply: > 100 µM

Task item: Record lookup: for KM12 colon, what TGI belongs to O=c1[nH]c2ccccc2n1C1CCNCC1 ?
Reply: > 100 µM

Task item: Record lookup: for KM12 colon, what TGI belongs to COc1ccc(-c2nc3sc(-c4cc(OC)c(OC)c(OC)c4)nn3c2/C=C2/C(=O)Nc3ccc(F)cc32)cc1 ?
Reply: 15.7 µM

Task item: Record lookup: for KM12 colon, what TGI belongs to O=C(O)C(Cc1cc(I)c(O)c(I)c1)C1CCCCC1 (stereo unspecified) ?
Reply: > 100 µM

Task item: Record lookup: for KM12 colon, what TGI belongs to COc1ccc2c(O)c(Oc3ccc(Cl)cc3)c(=O)oc2c1 ?
Reply: > 100 µM

Task item: Record lookup: for KM12 colon, what TGI belongs to O=P1(NCCCl)OCCCN1CCCl (stereo unspecified) ?
Reply: 448 µM

###

- System: SNB-75 CNS
- method-summary: NCI tumour cell line growth inhibition, 48 h; in the data active means GI50 below about 0.43 µM; inactive means the rest
Mark one answer only. Choices: active, inactive

                         structure_notation  class_assignment
0  COC(=O)c1c2c(c(C)[n+]([O-])c1C)C(=O)C(NCc1ccc(OC)cc1)=CC2=O          inactive
1  O=c1nc2n(-c3cccc(Cl)c3)c3ccc([N+](=O)[O-])cc3cc-2c(=O)[nH]1          inactive
2  CC[C@@]1(OP(=O)(O)O)C(=O)OCc2c1cc1n(c2=O)Cc2cc3ccccc3nc2-1            active
3  C/C(=C\C(=O)O[C@H]1[C@@H]2[C@H](C)CC[C@H]2[C@]2(C)O[C@@]1(C1CCCCC1)C[C@H]2OC(=O)CO)c1ccccc1            active

Now turn to the next compound.
Task item: Field: outcome | Entry: O=C1C=C(Nc2ccccc2)c2ccccc2C1=O
Reply: inactive

###

TGI values for the molecules below.
- Test system: SK-MEL-2 melanoma
- method-summary: NCI tumour cell line growth inhibition, 48 h

>>> df
                         structure_notation  experimental_readout  recorded_value
0  O=C(CNc1ccccc1[N+](=O)[O-])Nn1cnc2ccc(S(=O)(=O)Nc3ccccc3[N+](=O)[O-])cc2c1=O                   TGI        > 100 µM
1  Cc1cc(N(CCC#N)CCC#N)ccc1/C=C(\NC(=O)/C=C/c1ccccc1)C(=O)N=[N+]=[N-]                   TGI        > 100 µM

Let us examine a further case.
Task item: Record lookup: for SK-MEL-2 melanoma, what TGI belongs to CN(C)CCC(N)(P(=O)([O-])[O-])P(=O)([O-])[O-].N.N.[Pt+2] ?
Reply: > 100 µM

###

- Tested on: MALME-3M melanoma
- method-summary: NCI tumour cell line growth inhibition, 48 h
TGI values for the molecules below.

These solved cases illustrate the format of a correct answer.
molecule	target-or-test-system	recorded-value
O=C1C(Cl)C(c2cccc([N+](=O)[O-])c2)N1n1cnc2ccccc2c1=O (centres undefined)	MALME-3M melanoma	> 100 µM
O=C(O)/C=C/c1ccc(O)c(O)c1	MALME-3M melanoma	> 100 µM
N#Cc1cc2c(cc1C#N)SCCSCCCSCCS2	MALME-3M melanoma	> 65.1 µM
CCOC(=O)CC1=N/C(=N/C(=N)N[N+](=O)[O-])SC1	MALME-3M melanoma	> 100 µM
CC[C@@H]1/C=C/C=C/C[C@H](C)[C@@H](O)[C@@H](C)C(=O)[C@H](C)[C@@H](O)[C@H](C)C(=O)[C@H](C)[C@@H](O)[C@H](C)/C=C/C(=O)O[C@H]2[C@@H](C)[C@@H](CC1)O[C@@]1(CC[C@@H](C)[C@@H](CC(C)O)O1)[C@@H]2C (some centres undefined)	MALME-3M melanoma	> 24 µM

Task item: Which measured TGI value corresponds to C=CCc1cccc(C=O)c1O ?
Reply: > 100 µM

Task item: Which measured TGI value corresponds to COC(=O)C(=O)C(C#N)c1nc2ccccc2s1 (centres undefined) ?
Reply: > 100 µM

Task item: Which measured TGI value corresponds to C=CCN1C(=O)CC2[C@@H]3CCc4cc(O)ccc4C3CC[C@]2(C)C1=O (some centres undefined) ?
Reply: > 10 µM

Task item: Which measured TGI value corresponds to C=CC1(C)CCC2C(=CCC3C2(C)CC(O)C(O)C3(C)COC2OC(CO)C(O)C(O)C2O)C1 (centres undefined) ?
Reply: > 100 µM

###

- Test system: BT-549 breast
- method-summary: NCI tumour cell line growth inhibition, 48 h
TGI values for the compounds below.

>>> df
                                   compound  experimental_readout  recorded_value
0  O=S(=O)(NCCCNc1cc(-c2cn(-c3ccccc3)nc2-c2cccc(O)c2)ccn1)c1ccc(C(F)(F)F)cc1                   TGI          2.8 µM

Task item: Which measured TGI value corresponds to C=CC(=O)NCCC(=O)OCn1cc(F)c(=O)[nH]c1=O ?
Reply: > 100 µM

Task item: Which measured TGI value corresponds to CC1CCCCCC(=O)c2c(O)cc(O)cc2CC(=O)O1 (stereo not drawn) ?
Reply: > 100 µM

Task item: Which measured TGI value corresponds to CS(=O)(=O)OCCN(CCOS(C)(=O)=O)c1ccc(C=Nc2ccc(-c3csc(COc4ccccc4)n3)cc2)cc1 ?
Reply: 37 µM

Task item: Which measured TGI value corresponds to Cc1c(Cl)cccc1C(=O)Nc1nc2c(s1)CN(C(=O)Nc1cccc(C(F)(F)F)c1)CC2 ?
Reply: > 50 µM

###

- System: NCI-H226 lung
- method-summary: NCI tumour cell line growth inhibition, 48 h
experimental-readout: TGI

These solved cases illustrate the format of a correct answer.
compound	TGI
COc1cc(/C=C2\CC3C4CC=C5CC(OC(C)=O)CC[C@]5(C)C4CC[C@]3(C)C2=O)ccc1OCCN1CCCC1 (some centres not stated)	30.9 µM
C=C(Br)C(C)(Cl)CCC(Br)C(C)(C)Br (configuration not stated)	> 100 µM

Task item: Record lookup: for NCI-H226 lung, what TGI belongs to COc1cc(CN=c2nc(N(C)C)ss2)cc(OC)c1OC ?
Reply: > 10 µM

Task item: Record lookup: for NCI-H226 lung, what TGI belongs to CN(Cc1cnc2nc(N)nc(N)c2n1)c1ccc(C(=O)NCCCS(=O)(=O)O)cc1 ?
Reply: > 100 µM

###

TGI values for the molecules below.
- System: NCI/ADR-RES ovarian
- method-summary: NCI tumour cell line growth inhibition, 48 h

These solved cases illustrate the format of a correct answer.
In [3]: df
Out[3]:
                                   molecule  recorded_value
0  COc1cc([C@@H]2c3cc4c(cc3[C@H](OC3OC5COC(c6ccco6)OC5C(O)C3O)C3COC(=O)[C@@H]32)OCO4)cc(OC)c1OC (stereo partly drawn)       > 80.1 µM
1  O=C1c2cc(Br)ccc2-c2ccc3c4ccc5c6c(ccc(c7ccc1c2c73)c64)C(=O)c1cc(Br)ccc1-5        > 100 µM

Let us examine a further case.
Task item: Which measured TGI value corresponds to O=C1c2ccccc2C(=O)N1/N=C1/SC(=Nc2ccccc2)C(=Nc2ccccc2)N1c1ccccc1 ?
Reply: > 100 µM

###

TGI values for the compounds below.
- Tested on: UO-31 renal
- method-summary: NCI tumour cell line growth inhibition, 48 h
Where a SMILES comes first, the peptide text is derived from it. Bridges are numbered along the chain shown (N, C = ends). The star is where a group is joined. Cbz = O=C(OCc1ccccc1)*

compound	recorded-value
COc1ccc(-c2cc(N3CCN(c4ccc(Cl)cc4)CC3)c(C#N)c(=O)o2)cc1	30.5 µM

Task item: Which measured TGI value corresponds to Cn1cc(C2=C(c3ccsc3)C(=O)NC2=O)c2ccccc21 ?
Reply: > 25 µM

Task item: Which measured TGI value corresponds to CC1(OCc2ccccc2)C(=O)N2C1NCC2(C)C (configuration not stated) ?
Reply: > 100 µM

Task item: Which measured TGI value corresponds to CNC(=O)C1CCCCNC(=O)CCC(NC(=O)OCc2ccccc2)C(=O)N1 (stereo not drawn) (Cbz-Glu-Lys-NHMe; lactam 1-2; configuration not given here) ?
Reply: > 100 µM

Task item: Which measured TGI value corresponds to COc1ccc(C(=O)C(C(=O)CCC(=O)Nc2ccc(Cl)c(Cl)c2)c2ccc(OC)cc2)cc1 (configuration not stated) ?
Reply: > 100 µM

Task item: Which measured TGI value corresponds to O=C1NC(=O)C(c2c[nH]c3ccccc23)=C1c1c[nH]c2ccccc12 ?
Reply: > 25 µM

Task item: Which measured TGI value corresponds to C=C(Br)C(C)(Cl)CCC(Br)C(C)(C)Br (configuration not stated) ?
Reply: > 100 µM
